B1: RNA-binding E3 ubiquitin-protein ligase MEX3C, residues 325 to 391; numbered along this chain, Q5U5Q3 (parent)
chain: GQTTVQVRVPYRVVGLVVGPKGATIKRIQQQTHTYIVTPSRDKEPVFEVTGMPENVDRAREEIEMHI

# Variants of: B1
# test_summary: abundance fitness (aPCA) (normalised: wild type 0, dead -1); higher = more abundant; growth selection in yeast, the domain comes from the species named
# cond: Homo sapiens
Lab note: compare abundance fitness against -0.3. Equal or greater, write 1.0. Smaller, write 0.0.

{"columns": ["mutation_notation", "assigned_category"],
 "data": [
  ["A23C", 0.0],
  ["T24I", 0.0],
  ["V46I", 1.0],
  ["V46Y", 1.0],
  ["T34A", 0.0],
  ["Y35E", 1.0],
  ["T32H", 0.0],
  ["G22C", 0.0]
]}

In: Is abundance fitness for `P39E` at or above -0.3?
Out: 0.0

In: Is abundance fitness for `V56A` at or above -0.3?
Out: 0.0

In: Is abundance fitness for `V46S` at or above -0.3?
Out: 0.0

In: Is abundance fitness for `H33W` at or above -0.3?
Out: 0.0

In: Is abundance fitness for `V56H` at or above -0.3?
Out: 0.0

In: Is abundance fitness for `Q31M` at or above -0.3?
Out: 1.0

In: Is abundance fitness for `T50C` at or above -0.3?
Out: 0.0
